Measured polymerase ribozyme fitness (log ratio) by item
B1: TPR t1 (parent)
chain: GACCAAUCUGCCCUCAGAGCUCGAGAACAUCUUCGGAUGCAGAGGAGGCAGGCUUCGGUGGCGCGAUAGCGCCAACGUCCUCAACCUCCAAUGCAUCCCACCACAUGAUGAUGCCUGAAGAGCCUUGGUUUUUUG

Variants of: B1
Experiment: polymerase ribozyme fitness, log enrichment relative to wild type (log ratio); higher = more active; in vitro selection for triplet polymerase activity
Answer field: number only, no words.

biosequence=GACCAAUCUGCCCUCAGAGCUCGAGAACAUCUUCGGAUGCAGAGGAGGCAGGCUUCGGUGGCGCGAUAGCGCCAACGUCCUCAACCUCCAAUGCAUCCCACCACAUGAUGAUGCCCGAAGAGCCUUGGUUGUUUG reading=-1.05
biosequence=GUCCAAUCUGCACUCAGAGCUCGAGAACAUCUUCGGAUGCAGUGGAGGCAGGCUUCGGUGGCGCGAUAGCGCCAACGUCCUCAACCUCCAAUGCAUCCCACCACAUGAUGAUGCCUGAAAAGCCUUGGUUUUUUG reading=-1.89
biosequence=GACCAAUCUGCACUCAGAGCUCGAGAACAUCUUCGGAUGCAGAGGACGCAGGCUUAGGUGGCGCGAUAGUGCCAACGUCCUCUAUCUCCAAUGCAUCCCACCACAUGAUGAUGCCUGAACAGCCUUGGUUUUUUG reading=-4.03

Data point: GACCAAUCUGCCCUCAGAGCUCGAGAAUAUCUUCGGAUGCAGAGGAGGCAGGCUUCGGUGGCGCGAUAGCGCCAACGUCCUCAACCUCCAAUGCAUCCCACCACAUGAUGACGCCUGAAGAGCCUUGGUUAUUUG ; polymerase ribozyme fitness (log ratio) = -0.425

Data point: GACCAAUCUGCCCUCAGAGCGCGAGAACAUCUUCGGAUGCAGAGGAGGCAGGCUUCGGUGGCGUGAUAGCGCCAACAUCCUCAACCUCCAAUUCAUCCCACCACAUGAUGAUGCCUGAAGAGCCUUGGUUUUUUG ; polymerase ribozyme fitness (log ratio) = -3.27

Data point: GACCAAUCUGCCCUCAGAGCUCGAGAACAUCUUCGGUUGCAGAGGAGGCAGGCUUCGGCGGCGCGAUAGUGCCAACGUCCUCAACCUCCAAUGCAUCCCACCACAUGAUGAUGCCUGAAGAGCCUUGGUUUUUUG ; polymerase ribozyme fitness (log ratio) = -1.46

Data point: GACCAAUCUGACCUCAGUGCUCGAGAACAUCUUCGGAUGCAGAGGAGGAAGGCUUCGGUGGCGCGAUAGCGCCAACGUCCUCAACCUCCAAUGCAUCCCACCACAUGAUGAUGCCUGAAGAGGCUUGGUUUUUUG ; polymerase ribozyme fitness (log ratio) = -2.08

Data point: GACCAAUCUGCGCUCAGAGCUCGAGAACAUCUUCGGAUGCAGAGGAGGCAGGCUUCGGUGGCGCGAUAUCGCCAACGUCCGCAACCUCCUAUGCAUCCCACCACAUGAUGAUGCCUGAAGAGCCUUUGUUUUUUG ; polymerase ribozyme fitness (log ratio) = -4.07

Data point: GACCAAUGUGCCCUCACAGCUCGAGAACAUCUUCGGAUGCAGAGGAGGCAGGUUUCGGUGGCGCGAUAGCGCCAACGUCCUCAACCUCCAAUGCAUCCCACCACAUGAUGAUGCCUGAAGAGCCUUGGUUUUUUG ; polymerase ribozyme fitness (log ratio) = -2.9

Data point: GACCAAUCUGCCCUCAGAGCUCGAGAACAUCUUCGGAUGCAGAGGAGGCAGGCUUCGGUGGCGCGAUAGCGCCCACGUCCUAAACCUCCAAUGCAUCCCACCACUUGAUGAUGCCUGAAGAGCCUUGGUUUUUUG ; polymerase ribozyme fitness (log ratio) = -2.29

Data point: GCCCAAUCUGCCCUCAGAGCUCGAGAACAUCUUCGGAUGCAGAGGAGGCAGGCUUCCGUGGCGCGAUAGCGACAACGUCCUCAACCUCCAAUGCAUCCCAACACAUGAUGAUGCCUGAAGAGCCUUGGUUUUUUU ; polymerase ribozyme fitness (log ratio) = -3.06
